- testedOn: UniProtKB Q96EB6
- Sequence (Q96EB6 whole entry): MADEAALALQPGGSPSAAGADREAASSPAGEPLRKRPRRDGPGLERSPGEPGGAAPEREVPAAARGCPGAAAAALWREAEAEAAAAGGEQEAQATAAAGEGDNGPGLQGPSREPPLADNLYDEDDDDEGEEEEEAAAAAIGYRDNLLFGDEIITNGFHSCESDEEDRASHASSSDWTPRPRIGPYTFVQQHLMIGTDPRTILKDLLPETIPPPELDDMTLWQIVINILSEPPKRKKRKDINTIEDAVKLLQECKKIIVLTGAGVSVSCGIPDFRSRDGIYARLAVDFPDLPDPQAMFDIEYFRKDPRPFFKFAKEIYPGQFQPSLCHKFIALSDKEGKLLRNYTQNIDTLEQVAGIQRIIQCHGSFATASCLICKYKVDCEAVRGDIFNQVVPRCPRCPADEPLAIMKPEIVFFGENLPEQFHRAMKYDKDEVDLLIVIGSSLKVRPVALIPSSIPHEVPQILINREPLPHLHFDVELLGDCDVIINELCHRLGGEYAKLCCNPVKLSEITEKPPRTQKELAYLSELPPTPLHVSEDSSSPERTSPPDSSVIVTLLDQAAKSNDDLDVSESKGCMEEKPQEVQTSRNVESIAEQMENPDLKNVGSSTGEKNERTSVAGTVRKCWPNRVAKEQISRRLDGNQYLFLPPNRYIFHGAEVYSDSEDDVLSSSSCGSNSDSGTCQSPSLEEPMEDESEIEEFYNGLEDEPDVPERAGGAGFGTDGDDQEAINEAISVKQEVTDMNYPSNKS
- testDescription: Inhibition of recombinant human SIRT1 expressed in Escherichia coli using Fluor de Lys-SIRT1/2 substrate in presence of NAD+ by fluorescence microplate reader analysis
propertyMeasured: IC50

{"columns": ["compound", "measuredResult"],
 "data": [
  ["O=C1N=C2Oc3ccccc3CC2C(=O)N1c1ccccc1 (stereo unspecified)", "4.2 µM"]
]}

###

- testDescription: Inhibition of porcine pancreatic alpha-amylase preincubated for 10 mins followed by substrate starch addition and measured after 10 mins by colorimetric analysis
- Design: species or system Sus scrofa
pIC50: −log10 of the molar value.
Each entry below lists one item and its recorded pIC50 value.

{"columns": ["compound", "pIC50"],
 "data": [
  ["O=C(C1=C(c2ccccc2O)Oc2[nH]c(=S)[nH]c(=O)c2C1c1ccc(O)cc1)N1CCCCC1 (centres undefined)", 4.57],
  ["O=C(C1=C(c2ccccc2O)Oc2[nH]c(=S)[nH]c(=O)c2C1c1ccc(Cl)cc1)N1CCCCC1 (centres undefined)", 5.00],
  ["COc1cc(C2C(C(=O)N3CCCCC3)=C(c3ccccc3O)Oc3[nH]c(=S)[nH]c(=O)c32)ccc1O (centres undefined)", 4.65],
  ["O=C(C1=C(c2ccccc2O)Oc2[nH]c(=S)[nH]c(=O)c2C1c1ccc(Br)cc1)N1CCCCC1 (centres undefined)", 4.61]
]}

###

Quick reference for zone of inhibition at 50000 µg/mL among some molecules
- System: Aspergillus fumigatus
- testDescription: microbe, parasite or virus in culture
- Type: functional
- conditionsUsed: ATCC204305, dose 50 mg/ml, time 24 hrs, read-out: DIZ

{"columns": ["molecule", "testedOn", "scaleUnit", "zone of inhibition at 50000 µg/mL"],
 "data": [
  ["Cc1nc2c(c(=O)[nH]1)C(c1ccc(Cl)cc1)C=C(c1cc3ccccc3oc1=O)O2 (stereo unspecified)", "Aspergillus fumigatus", "mm", 10],
  ["Nc1nc(=S)[nH]c2c1C(c1ccc(Cl)cc1)C=C(c1cc3ccccc3oc1=O)O2 (stereo unspecified)", "Aspergillus fumigatus", "mm", 10],
  ["Clc1ccc(COC(Cn2ccnc2)c2ccc(Cl)cc2Cl)c(Cl)c1 (stereo unspecified) [MICONAZOLE NITRATE]", "Aspergillus fumigatus", "mm", 19],
  ["Nc1nc(=O)[nH]c2c1C(c1ccc(Cl)cc1)C=C(c1cc3ccccc3oc1=O)O2 (stereo unspecified)", "Aspergillus fumigatus", "mm", 10],
  ["Nc1ncnc2c1C(c1ccc(Cl)cc1)C=C(c1cc3ccccc3oc1=O)O2 (stereo unspecified)", "Aspergillus fumigatus", "mm", 10],
  ["O=c1[nH]cnc2c1C(c1ccc(Cl)cc1)C=C(c1cc3ccccc3oc1=O)O2 (stereo unspecified)", "Aspergillus fumigatus", "mm", 10]
]}

###

- Tested on: HepG2
- testDescription: Anticancer activity against human HepG2 cells assessed as reduction in cell viability incubated for 24 hrs by MTT colorimetric assay
- Type: functional, cell-based
- conditionsUsed: HepG2, 24 h
propertyMeasured: IC50 (µM)

{"columns": ["structureNotation", "testedOn", "measuredResult"],
 "data": [
  ["N#CC(C#N)=C1c2c(-c3ccccc3)n[nH]c2Oc2[nH]c(=O)nc(-c3ccccc3O)c21", "HepG2", 30.1],
  ["N#CC(C#N)=C1c2c(-c3ccccc3)n[nH]c2Oc2c1c(-c1ccccc1O)[nH]c1nc(=O)[nH]c(=O)c2-1", "HepG2", 21.9],
  ["COc1cccc2c1C(=O)c1c(O)c3c(c(O)c1C2=O)C[C@@](O)(C(=O)CO)C[C@@H]3O[C@H]1C[C@H](N)[C@H](O)[C@H](C)O1", "HepG2", 0.467],
  ["N#CC(C#N)=C1c2c(-c3ccccc3)n[nH]c2Oc2[nH]c(=S)nc(-c3ccccc3O)c21", "HepG2", 22.6]
]}

###

- testDescription: Inhibition of porcine pancreatic alpha-amylase preincubated for 10 mins followed by substrate starch addition and measured after 10 mins by colorimetric analysis
- Set-up: species or system Sus scrofa
Assign labels as follows, please: satisfied for IC50 below 20 µM; not satisfied for IC50 equal to or exceeding 20 µM.

{"columns": ["compound", "classAssignment"],
 "data": [
  ["COc1ccc(C2C(C(=O)N3CCCCC3)=C(c3ccccc3O)Oc3[nH]c(=S)[nH]c(=O)c32)cc1 (configuration not stated)", "satisfied"],
  ["Cc1ccc(C2C(C(=O)N3CCCCC3)=C(c3ccccc3O)Oc3[nH]c(=S)[nH]c(=O)c32)cc1 (configuration not stated)", "satisfied"],
  ["C[C@H]1O[C@H](O[C@H]2[C@H](O)[C@@H](O)[C@@H](O[C@H]3[C@H](O)[C@@H](O)C(O)O[C@@H]3CO)O[C@@H]2CO)[C@H](O)[C@@H](O)[C@@H]1N[C@H]1C=C(CO)[C@@H](O)[C@H](O)[C@H]1O (some centres not stated)", "satisfied"],
  ["O=C(C1=C(c2ccccc2O)Oc2[nH]c(=S)[nH]c(=O)c2C1c1ccccc1)N1CCCCC1 (configuration not stated)", "not satisfied"],
  ["O=C(C1=C(c2ccccc2O)Oc2[nH]c(=S)[nH]c(=O)c2C1c1ccc(F)cc1)N1CCCCC1 (configuration not stated)", "not satisfied"],
  ["O=C(C1=C(c2ccccc2O)Oc2[nH]c(=S)[nH]c(=O)c2C1c1cc2ccccc2cc1O)N1CCCCC1 (configuration not stated)", "satisfied"]
]}

###

- Tested on: HONE1 cell line
- testDescription: Anticancer activity against human HONE1 cell line assessed as cell growth inhibition incubated for 24 hrs
- Type: functional, cell-based
- conditionsUsed: HONE1, 24 h
List of IC50 values.

{"columns": ["compound", "IC50 / nM"],
 "data": [
  ["N#CC1=C(N)C2C(=NC(NNc3ccccc3)=NC2c2ccc(Cl)cc2)OC1=O (configuration not stated)", 536],
  ["N#CC1=C(N)C2C(=NC(NN)=NC2c2ccc(Cl)cc2)OC1=O (configuration not stated)", 201]
]}

###

- Test system: Escherichia coli
- testDescription: Antibacterial activity against Escherichia coli ATCC 25922 assessed as diameter of inhibition zone at 50 mg/ml incubated for 24 hrs by paper disk diffusion method
- Assay type: functional
- conditionsUsed: read-out: DIZ
Listing of entries alongside the reported zone of inhibition at 50000 µg/mL.
propertyMeasured: zone of inhibition at 50000 µg/mL (mm)

{"columns": ["compound", "propertyMeasured", "measuredResult"],
 "data": [
  ["Nc1ncnc2c1C(c1ccc(Cl)cc1)C=C(c1cc3ccccc3oc1=O)O2 (stereo not given)", "zone of inhibition at 50000 µg/mL", 10],
  ["O=c1[nH]cnc2c1C(c1ccc(Cl)cc1)C=C(c1cc3ccccc3oc1=O)O2 (stereo not given)", "zone of inhibition at 50000 µg/mL", 10],
  ["O=c1[nH]c(-c2ccccc2)nc2c1C(c1ccc(Cl)cc1)C=C(c1cc3ccccc3oc1=O)O2 (stereo not given)", "zone of inhibition at 50000 µg/mL", 10],
  ["CC1(C)S[C@@H]2[C@H](NC(=O)[C@H](N)c3ccc(O)cc3)C(=O)N2[C@H]1C(=O)O [AMOXICILLIN]", "zone of inhibition at 50000 µg/mL", 24],
  ["Nc1nc(=S)[nH]c2c1C(c1ccc(Cl)cc1)C=C(c1cc3ccccc3oc1=O)O2 (stereo not given)", "zone of inhibition at 50000 µg/mL", 10]
]}

###

- testedOn: UniProt P02769
- Sequence (P02769 whole entry): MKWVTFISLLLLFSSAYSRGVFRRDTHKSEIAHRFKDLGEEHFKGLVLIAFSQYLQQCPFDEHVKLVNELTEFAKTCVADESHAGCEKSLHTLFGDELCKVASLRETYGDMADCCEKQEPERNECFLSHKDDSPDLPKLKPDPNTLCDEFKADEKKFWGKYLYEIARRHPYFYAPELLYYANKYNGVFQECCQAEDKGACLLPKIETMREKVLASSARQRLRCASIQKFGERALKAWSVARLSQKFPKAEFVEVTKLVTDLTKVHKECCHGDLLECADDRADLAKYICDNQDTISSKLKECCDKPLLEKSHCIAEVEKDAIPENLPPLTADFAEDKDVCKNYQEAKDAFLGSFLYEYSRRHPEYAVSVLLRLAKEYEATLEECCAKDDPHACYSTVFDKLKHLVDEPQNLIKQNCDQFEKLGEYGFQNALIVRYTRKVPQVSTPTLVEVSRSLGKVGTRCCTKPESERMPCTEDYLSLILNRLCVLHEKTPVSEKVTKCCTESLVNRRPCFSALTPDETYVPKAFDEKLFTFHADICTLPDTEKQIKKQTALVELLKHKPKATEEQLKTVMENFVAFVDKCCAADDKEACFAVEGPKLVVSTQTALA
- testDescription: […] bovine serum albumin denaturation incubated for 23 mins by UV-Visible spectrophotometry

{"columns": ["molecule", "IC50 / µM"],
 "data": [
  ["O=C(C1=C(c2ccccc2O)Oc2[nH]c(=S)[nH]c(=O)c2C1c1ccccc1O)N1CCCCC1 (stereo not given)", 26],
  ["COc1cc(C2C(C(=O)N3CCCCC3)=C(c3ccccc3O)Oc3[nH]c(=S)[nH]c(=O)c32)ccc1O (stereo not given)", 23.3],
  ["COc1ccc(C2C(C(=O)N3CCCCC3)=C(c3ccccc3O)Oc3[nH]c(=S)[nH]c(=O)c32)cc1 (stereo not given)", 18.1],
  ["Cc1ccc(C2C(C(=O)N3CCCCC3)=C(c3ccccc3O)Oc3[nH]c(=S)[nH]c(=O)c32)cc1 (stereo not given)", 19.5],
  ["O=C(C1=C(c2ccccc2O)Oc2[nH]c(=S)[nH]c(=O)c2C1c1ccc(F)cc1)N1CCCCC1 (stereo not given)", 12.3],
  ["O=C(C1=C(c2ccccc2O)Oc2[nH]c(=S)[nH]c(=O)c2C1c1ccc(Br)cc1)N1CCCCC1 (stereo not given)", 23.1],
  ["O=C(C1=C(c2ccccc2O)Oc2[nH]c(=S)[nH]c(=O)c2C1c1ccc(O)cc1)N1CCCCC1 (stereo not given)", 19.7],
  ["O=C(C1=C(c2ccccc2O)Oc2[nH]c(=S)[nH]c(=O)c2C1c1ccc(Cl)cc1)N1CCCCC1 (stereo not given)", 26.7],
  ["O=C(C1=C(c2ccccc2O)Oc2[nH]c(=S)[nH]c(=O)c2C1c1ccccc1)N1CCCCC1 (stereo not given)", 19.9],
  ["O=C(C1=C(c2ccccc2O)Oc2[nH]c(=S)[nH]c(=O)c2C1c1cc2ccccc2cc1O)N1CCCCC1 (stereo not given)", 20.1]
]}
